// provenance: patent US7514534

Subject Of Test: T1, MMP-26 (human)
T1 sequence: ASDF
Method Description: cell-based or functional assay
Quantity Name: % Inhibition of JEG-3 cell invasion, 5 µg/ml (first test) (%)
# output: bare number, implied unit %

Known % Inhibition of JEG-3 cell invasion, 5 µg/ml (first test) results, listed for orientation:
D02 (antibody, human IgG4, V domains shown) VH: EVQLLESGGGLVQPGGSLRLSCAASGFTFSWYDMAWVRQAPGKGLEWVSRIVPSGGHTSYADSVKGRFTISRDNFKNTLYLQMNSLRAEDTAVYYCARRASRPEFFDYWGQGALVTVSS VL: DIQMTQSPSFLSASVGDRVTITCRASQGISTYLAWYQQKPGKAPKVLIYTASTLQSGVPSRFSGSGSGTEFTLTISSLQPEDFATYYCQQSYITPPEVTFGPGTKVDIKR :: 36
D6-orig (antibody, human IgG4, V domains shown) VH: EVQLLESGGGLVQPGGSLRLSCAASGFTFSMYSMRWVRQAPGKGLEWVSSIYPSGGSTEYADSVKGRFTISRDNSKNTLYLQMNSLRAEDTAVYYCAREGGENDYWGQGTLVTVSS VL: DIQMTQSPLSLSASVGDRVAITCRASQSIDTYLNWYQQKPGKAPKLLIYAASKLEDGVPSRFSGSGTGTDFTLTIRSLQPEDFASYFCQQSYSSPGITFGPGTKVEIKR :: 41
B04 (antibody, human IgG4, V domains shown) VH: EVQLLESGGGLVQPGGSLRLSCAASGFTFSFYWMMWVRQAPGKGLEWVSGISSSGGFTKYADSVKGRFTISRDNSKNTLYLQMNSLRAEDTAVYYCARETSRRAFDIWGQGTMVTVSS VL: DIQMTQSPSSVSASVGDRVTITCRASQGISKSLAWYQQKPGKAPKLLVYGAFSLESGVPSRFSGTGAGTDFILTISRLQPEDFATYYCQQANSFPLTFGGGTKVEIKR :: 36
D06 (antibody, human IgG4, V domains shown) VH: EVQLLESGGGLVQPGGSLRLSCAASGFTFSGYIMEWVRQAPGKGLEWVSVIVSSGGFTMYADSVKGRFTISRDNSKNTLYLQMNSLRAEDTAVYYCARVGDSKGGYYLDYWGQGTLVTVSS VL: DIQMTQSPSSLSASVGDRVTITCRTSQIINTYLNWYQQKPGKAPKLLIYAASTLQGGVPSRFSGSGSGTDFTLTIKSLQPDDFATYYCQQSYTSPRTFGQGTKVEIKR :: 0

Continue with the binder presented below.
Ask | Fill in: % Inhibition of JEG-3 cell invasion, 5 µg/ml (first test) of B06 (antibody, human IgG4, V domains shown) VH: EVQLLESGGGLVQPGGSLRLSCAASGFTFSQYFMKWVRQAPGKGLEWVSSISPSGGLTQYADSVKGRFTISRDNSKNTLYLQMNSLRAEDTAVYYCARGGIEAPGSPSDYWGQGTLVTVSS VL: DIQMTQSPSFLSASVGDRVTITCRASQGISSYLAWYQQKPGKAPKLLIYAASTLQSGVPSRFSGSGSGTDFTLTISSLEPEDFATYYCQESYSTPFFTFGPGTKVDIRR is ___
Reply | 34
